pIC50: −log10 of the molar value.
Before we begin, note that these pIC50 values for Epidermal growth factor receptor (Homo sapiens) originate from several publications.
experimental.readout: pIC50

>  <compound>
C#Cc1cccc(Nc2ncnc3nc(Nc4ccc(S(=O)(=O)NCCO)cc4)sc23)c1

>  <target.system>
Epidermal growth factor receptor (Homo sapiens)

>  <recorded.measurement>
8.19

$$$$
>  <compound>
C=CC(=O)Nc1cc(-c2c(-c3cccc(OCCCN(C)C)c3)[nH]c3nccc(Cl)c23)ccc1C

>  <target.system>
Epidermal growth factor receptor (Homo sapiens)

>  <recorded.measurement>
≥ 7.00

$$$$
>  <compound>
CN(C)C/C=C/C(=O)Nc1cccc(Nc2cc(Nc3ccc(OCc4cccc(F)c4)c(Cl)c3)ncn2)c1

>  <target.system>
Epidermal growth factor receptor (Homo sapiens)

>  <recorded.measurement>
≥ 8.00

$$$$
>  <compound>
C=CC(=O)N1CCC(C2CCn3c2nc(-c2ccc(Oc4ccccc4)c(OC)c2)c3C(N)=O)CC1 (centres unmarked)

>  <target.system>
Epidermal growth factor receptor (Homo sapiens)

>  <recorded.measurement>
6.42

$$$$
>  <compound>
CCc1nn(C)c2c1/C=C/c1n[nH]c3ccc(cc13)-c1cnn(C)c1O[C@@H](C)CCO2

>  <target.system>
Epidermal growth factor receptor (Homo sapiens)

>  <recorded.measurement>
6.80

$$$$
>  <compound>
C=CC(=O)Nc1cccc(Nc2cc(Oc3cccc(C(F)(F)F)c3)ncn2)c1

>  <target.system>
Epidermal growth factor receptor (Homo sapiens)

>  <recorded.measurement>
≥ 8.00

$$$$
>  <compound>
CCc1nc(-c2cc(C)cc(OC)c2)c(-c2ccnc(Nc3ccc(OCCO)c(C#N)c3)n2)s1

>  <target.system>
Epidermal growth factor receptor (Homo sapiens)

>  <recorded.measurement>
< 6.00

$$$$
>  <compound>
CN(C)C/C=C/C(=O)N1CC[C@@H](n2c(=O)n(-c3ccc(Cl)cc3)c3c(N)ncnc32)C1

>  <target.system>
Epidermal growth factor receptor (Homo sapiens)

>  <recorded.measurement>
< 5.00

$$$$

* * *

Before we begin, note that these IC50 values for Epidermal growth factor receptor (Homo sapiens, UniProt P00533) originate from several publications.

>  <smiles.entry>
C=CC(=O)Nc1cc(-c2c(-c3ccc(N4CCN(C)CC4)cc3)[nH]c3ncc(C(=O)NCc4ccc(NC(C)=O)cc4)cc23)ccc1C

>  <IC50>
≤ 100 nM

$$$$
>  <smiles.entry>
COc1cc(OC2CCN(CCS(C)(=O)=O)CC2)c(C)cc1Nc1nccc(-c2sc(C(C)C)nc2-c2cccc(NS(=O)(=O)c3c(F)cccc3F)c2)n1

>  <IC50>
< 100 nM

$$$$
>  <smiles.entry>
Cc1cnc(NC(=O)c2ccc(-c3nn([C@@H]4CCN(C(=O)/C=C/CN(C)C5CC5)C4)c4ncnc(N)c34)cc2)s1

>  <IC50>
1000 to 10000 nM

$$$$
>  <smiles.entry>
C=CC(=O)Nc1cc(-c2c(-c3ccc(OCCO)cc3)[nH]c3ncc(C(=O)OC(C)C)cc23)ccc1C

>  <IC50>
≤ 100 nM

$$$$
>  <smiles.entry>
CC(C)c1nc(-c2cccc(NS(=O)(=O)c3ccccc3)c2)c(-c2ccnc(Nc3ccc(CC4CCN(CCS(C)(=O)=O)CC4)c(F)c3)n2)s1

>  <IC50>
100 to 1000 nM

$$$$
>  <smiles.entry>
C=CC(=O)N1CC[C@@H](n2c(F)c(-c3ccc(Cl)cc3)c3c(N)ncnc32)C1

>  <IC50>
< 100 nM

$$$$
>  <smiles.entry>
C=CC(=O)Nc1cccc(Nc2nc(Nc3ccc(N4CCN(C(=O)CO)CC4)cc3OC)ncc2Cl)c1

>  <IC50>
10 to 30 nM

$$$$
>  <smiles.entry>
C=CC(=O)Nc1cc(-c2c(-c3ccc(N4CCN(CC)CC4)cc3)[nH]c3ncc(C(=O)OC(C)C)cc23)ccc1C

>  <IC50>
≤ 100 nM

$$$$
>  <smiles.entry>
C#Cc1cccc(Nc2ncnc3ccc(OCCCCCCC(=O)NO)cc23)c1

>  <IC50>
100 to 1000 nM

$$$$
>  <smiles.entry>
COc1cc(C2CCN(CCS(C)(=O)=O)CC2)c(C)cc1Nc1nccc(-c2sc(C(C)C)nc2-c2cccc(NS(=O)(=O)c3c(F)cccc3F)c2)n1

>  <IC50>
> 1000 nM

$$$$
>  <smiles.entry>
CC(C)c1nc(-c2cccc(NS(=O)(=O)c3c(F)cccc3F)c2)c(-c2ccnc(Nc3ccc(N4CCOCC4)nc3)n2)s1

>  <IC50>
100 to 1000 nM

$$$$
>  <smiles.entry>
COc1cc(N2CCC(N3CCN(C)CC3)CC2)c(OC)cc1Nc1ncc(Br)c(Nc2ccc3nc(C4CC4)ccc3c2P(C)(C)=O)n1

>  <IC50>
21 nM

$$$$
>  <smiles.entry>
CCc1cc(Nc2ncc(Br)c(Nc3ccc(-c4cnc(C5CC5)cn4)cc3P(C)(C)=O)n2)c(OC)cc1N1CCC(N2CCN(C)CC2)CC1

>  <IC50>
18.1 nM

$$$$
>  <smiles.entry>
CN(C)C/C=C/C(=O)N1CCOc2c1ccc1ncnc(Nc3ccc(OCc4ccc(F)cc4)cc3)c21

>  <IC50>
≤ 50 nM

$$$$
